Test system: MDA-MB-436 cells
Assay: Growth inhibition assay against BRCA mutant human breast cancer MDA-MB-436 cell line (CCK-8)
Type: cell-based
Conditions: Homo sapiens, MDA-MB-436, […], proliferation of MDA-MB-436 cells, 7 days
This listing pairs molecules with measured pIC50.
Bear in mind: pIC50 is minus log10 of a mol/L concentration; give just that figure.

Examples with answers:
{"Compound": "CNC(=O)c1ccc(N2CCN(Cc3cc(F)c4c(c3)[nH]c(=O)n3cc(C)nc43)CC2)c(F)n1", "Recorded Endpoint": "pIC50", "Numeric Readout": 8.16}
{"Compound": "CNC(=O)c1ccc(N2CCN(Cc3ccc4c([nH]c(=O)c5c(C)cnn54)c3F)CC2)c(C)c1", "Recorded Endpoint": "pIC50", "Numeric Readout": 7.70}
{"Compound": "CNC(=O)c1ccc(N2CCN(Cc3ccc4c([nH]c(=O)c5cncn54)c3F)CC2)c(F)n1", "Recorded Endpoint": "pIC50", "Numeric Readout": 7.85}
{"Compound": "CNC(=O)c1ccc(N2CCN(Cc3ccc4c(c3)[nH]c(=O)c3c4ncn3C)CC2)c(C)n1", "Recorded Endpoint": "pIC50", "Numeric Readout": 7.71}
{"Compound": "CNC(=O)c1ccc(N2CCN(Cc3ccc4c([nH]c(=O)n5c(C)cnc45)c3F)CC2)c(F)n1", "Recorded Endpoint": "pIC50", "Numeric Readout": 7.61}

Turning now to a further molecule:
Ask | Give pIC50 (MDA-MB-436 cells) of the following molecule: "CNC(=O)c1ccc2c(n1)OC[C@H]1CN(Cc3ccc4c([nH]c(=O)c5c(C)cnn54)c3F)CCN21"
Reply | 7.73

====

Form field: pIC50 (one value per entry).
Biological target: PDE3A (Homo sapiens (Human), UniProt Q14432)
Sequence (Q14432 whole entry): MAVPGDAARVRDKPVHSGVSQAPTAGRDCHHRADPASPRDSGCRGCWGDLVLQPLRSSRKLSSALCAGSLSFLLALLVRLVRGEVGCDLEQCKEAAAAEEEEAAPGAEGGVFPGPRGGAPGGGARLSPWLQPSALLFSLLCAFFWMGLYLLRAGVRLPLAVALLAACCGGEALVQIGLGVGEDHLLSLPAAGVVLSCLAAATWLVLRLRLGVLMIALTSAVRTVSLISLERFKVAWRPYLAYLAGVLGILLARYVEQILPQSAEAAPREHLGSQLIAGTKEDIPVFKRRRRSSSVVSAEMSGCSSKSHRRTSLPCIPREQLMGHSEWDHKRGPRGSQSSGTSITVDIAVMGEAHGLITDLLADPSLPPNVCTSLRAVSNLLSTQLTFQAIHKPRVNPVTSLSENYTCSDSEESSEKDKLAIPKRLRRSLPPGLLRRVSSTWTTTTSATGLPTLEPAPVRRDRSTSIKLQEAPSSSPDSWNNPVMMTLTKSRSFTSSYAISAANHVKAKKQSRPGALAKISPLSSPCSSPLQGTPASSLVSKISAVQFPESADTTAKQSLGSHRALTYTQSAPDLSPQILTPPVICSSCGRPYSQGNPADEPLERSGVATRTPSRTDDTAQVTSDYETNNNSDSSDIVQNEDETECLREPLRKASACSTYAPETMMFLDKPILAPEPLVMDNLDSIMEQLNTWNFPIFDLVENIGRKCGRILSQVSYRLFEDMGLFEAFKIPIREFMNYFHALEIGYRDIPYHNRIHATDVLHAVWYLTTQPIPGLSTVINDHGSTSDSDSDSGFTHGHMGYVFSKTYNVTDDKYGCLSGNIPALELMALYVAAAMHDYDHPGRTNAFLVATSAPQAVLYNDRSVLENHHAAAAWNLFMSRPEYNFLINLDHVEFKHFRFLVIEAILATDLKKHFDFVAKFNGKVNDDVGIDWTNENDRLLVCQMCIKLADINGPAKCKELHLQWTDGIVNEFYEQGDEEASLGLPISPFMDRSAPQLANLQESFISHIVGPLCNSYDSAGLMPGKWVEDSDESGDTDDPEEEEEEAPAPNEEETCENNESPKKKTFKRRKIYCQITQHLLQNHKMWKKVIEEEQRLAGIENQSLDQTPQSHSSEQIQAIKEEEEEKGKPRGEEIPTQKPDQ
Lab note: report pIC50 as minus log10 of the concentration in molar units, number only.

Ask | Lab note: need pIC50 with PDE3A (Homo sapiens (Human), UniProt Q14432) for entry "CNC(=O)c1ccc(N2CCN(Cc3ccc4c([nH]c(=O)n5cc(C)nc45)c3F)CC2)c(F)n1" , please look it up.
Reply | 4.54

Ask | Lookup: pIC50 / PDE3A (Homo sapiens (Human), UniProt Q14432) / "CNC(=O)c1ccc(N2CCN(Cc3ccc4c(c3)[nH]c(=O)c3c(F)cnn34)CC2)c(F)n1"
Reply | 6.06

Ask | I'm curious: which pIC50 was measured for "CNC(=O)c1ccc(N2CCN(Cc3ccc4c(c3)[nH]c(=O)c3occc34)CC2)c(F)n1" tested on PDE3A (Homo sapiens (Human), UniProt Q14432)?
Reply | 5.89

Ask | Entry "CNC(=O)c1ccc(N2CCN(Cc3cc(F)c4c(c3)[nH]c(=O)c3c(F)cnn34)CC2)c(F)n1" , system PDE3A (Homo sapiens (Human), UniProt Q14432): what pIC50 was measured?
Reply | 6.20

Ask | Lab note: need pIC50 for "CNC(=O)c1ccc(N2CCN(Cc3ccc4c(c3)[nH]c(=O)c3cocc34)CC2)c(F)n1" on PDE3A (Homo sapiens (Human), UniProt Q14432), anyone have it?
Reply | 5.92

====

Test system: MDA-MB-436 cells
Assay: Growth inhibition assay against BRCA mutant human breast cancer MDA-MB-436 cell line (CCK-8)
Assay type: cell-based
Conditions: Homo sapiens, MDA-MB-436, […], proliferation of MDA-MB-436 cells, 7 days
Measured pIC50 of individual entries
In simple prose, pIC50 is minus the logarithm base ten of a concentration in moles per litre.

{"Compound": "CNC(=O)c1ccc(N2CCN(Cc3ccc4c(c3)[nH]c(=O)c3c(C)noc34)CC2)c(C)n1", "Numeric Readout": 7.92}
{"Compound": "CNC(=O)c1ccc(N2CCN(Cc3ccc4c(c3)[nH]c(=O)c3n[nH]cc34)CC2)c(C)n1", "Numeric Readout": 7.54}
{"Compound": "CCNC(=O)c1ccc(N2CCN(Cc3ccc4c([nH]c(=O)n5ccnc45)c3F)CC2)c(F)n1", "Numeric Readout": 7.33}

# input for lookup
Ask | Requested read-out pIC50, target or system MDA-MB-436 cells, entry "CNC(=O)c1ccc(N2CCN(Cc3cc(F)c4c(c3)[nH]c(=O)c3occc34)CC2)c(C)n1"
Reply | 8.61

====

Reported pIC50 values for the following molecules.
Test system: MDA-MB-436 cells
Assay: Growth inhibition assay against BRCA mutant human breast cancer MDA-MB-436 cell line (CCK-8)
Type: cell-based
Conditions: Homo sapiens, MDA-MB-436, […], proliferation of MDA-MB-436 cells, 7 days
In textbook form, pIC50 equals minus log to base ten of the concentration in mol/L.

In the examples that follow, each entry is paired with its recorded pIC50.
{"Compound": "CNC(=O)c1ccc(N2CCN(Cc3ccc4c([nH]c(=O)c5occc54)c3F)CC2)cn1", "pIC50": 7.53}
{"Compound": "CNC(=O)c1ccc(N2CCN(Cc3ccc4c(c3)[nH]c(=O)c3nn(C)cc34)CC2)c(C)n1", "pIC50": 8.33}

Ask | Need pIC50 of "CNC(=O)c1ccc(N2CCN(Cc3ccc4c([nH]c(=O)c5oc(C)cc54)c3F)CC2)c(F)n1" , thanks.
Reply | 8.12

====

pIC50 values recorded for recombinant poly(ADP-ribose) polymerase 1 (PARP1) (Homo sapiens (Human), UniProt P09874)
Lab note: report pIC50 as minus log10 of the concentration in molar units, number only.

Below are worked cases with known answers.
{"Compound": "CNC(=O)c1ccc(N2CCN(Cc3ccc4c(c3)[nH]c(=O)c3oncc34)CC2)c(C)n1", "Study Target": "recombinant poly(ADP-ribose) polymerase 1 (PARP1) (Homo sapiens (Human), UniProt P09874)", "Numeric Readout": 6.86}
{"Compound": "CNC(=O)c1ccc(C2=CCN(Cc3ccc4c([nH]c(=O)c5c(F)cnn54)c3F)CC2)c(F)n1", "Study Target": "recombinant poly(ADP-ribose) polymerase 1 (PARP1) (Homo sapiens (Human), UniProt P09874)", "Numeric Readout": 9.82}
{"Compound": "CNC(=O)c1ccc(N2CCN(Cc3ccc4c(c3)[nH]c(=O)c3cn(C)nc34)CC2)c(C)n1", "Study Target": "recombinant poly(ADP-ribose) polymerase 1 (PARP1) (Homo sapiens (Human), UniProt P09874)", "Numeric Readout": 8.61}
{"Compound": "CNC(=O)c1ccc(N2CCN(Cc3cc(F)c4c(c3)[nH]c(=O)n3cc(C)nc43)CC2)c(C)n1", "Study Target": "recombinant poly(ADP-ribose) polymerase 1 (PARP1) (Homo sapiens (Human), UniProt P09874)", "Numeric Readout": 8.75}
{"Compound": "CNC(=O)c1ccc(N2CCN(Cc3ccc4c(c3)[nH]c(=O)c3nn(C)cc34)CC2)c(C)n1", "Study Target": "recombinant poly(ADP-ribose) polymerase 1 (PARP1) (Homo sapiens (Human), UniProt P09874)", "Numeric Readout": 9.11}
{"Compound": "CNC(=O)c1ccc(N2CCN(Cc3cc4[nH]c(=O)c5cn(C)nc5c4cc3F)CC2)c(F)n1", "Study Target": "recombinant poly(ADP-ribose) polymerase 1 (PARP1) (Homo sapiens (Human), UniProt P09874)", "Numeric Readout": 8.37}
{"Compound": "CNC(=O)c1ccc(N2CCN(Cc3ccc4c5c(c(=O)[nH]c4c3)CN(C)C5)CC2)c(C)n1", "Study Target": "recombinant poly(ADP-ribose) polymerase 1 (PARP1) (Homo sapiens (Human), UniProt P09874)", "Numeric Readout": 8.08}
{"Compound": "[2H]C([2H])([2H])NC(=O)c1ccc(N2CCN(Cc3ccc4c([nH]c(=O)c5c(F)cnn54)c3F)CC2)c(F)n1", "Study Target": "recombinant poly(ADP-ribose) polymerase 1 (PARP1) (Homo sapiens (Human), UniProt P09874)", "Numeric Readout": 9.62}

Ask | // returns reported pIC50 for input "CNC(=O)c1ccc(N2CCN(Cc3ccc4c([nH]c(=O)c5c(F)cnn54)c3F)CC2)c(C)n1"
Reply | 8.97

Ask | Value lookup for pIC50; key = "CNC(=O)c1ccc(N2CCN(Cc3ccc4c([nH]c(=O)c5c(C)cnn54)c3F)CC2)c(F)n1"
Reply | 8.86

Ask | Need pIC50, item "O=C(NC1CC1)c1ccc(N2CCN(Cc3ccc4c([nH]c(=O)n5ccnc45)c3F)CC2)c(F)n1"
Reply | 8.56

Ask | Bench note: what pIC50 did "CNC(=O)c1ccc(N2CCN(Cc3ccc4c([nH]c(=O)c5ccoc54)c3F)CC2)c(C)n1" show?
Reply | 9.41

Ask | Report pIC50 for "CNC(=O)c1ccc(N2CCN(Cc3ccc4c([nH]c(=O)c5c(C)cnn54)c3F)CC2)c(C(F)(F)F)n1" please.
Reply | 9.24

Ask | Entry "CNC(=O)c1ccc(N2CCN(Cc3ccc4c(c3)[nH]c(=O)c3c4ncn3C)CC2)c(C)n1" : reported pIC50 = ?
Reply | 8.62

Ask | Which pIC50 value is on record for "CNC(=O)c1ccc(N2CCN(Cc3ccc4c([nH]c(=O)c5c(C)cnn54)c3F)CC2)c(C)n1" ?
Reply | 8.71
